MEASUREMENT DESCRIPTION: yeast display, Sf9 membrane polyspecificity reagent, FACS + sequencing; frameworks hold sequencing errors
ENDPOINT LABEL: polyreactivity (PSR sort gate)

Query: Bench note: what polyreactivity (PSR sort gate) did QVQLVESGGGLVQAGGSLRLSCAASGSTFWYYTMGSYRQAPGKERELVAAIRYSGTRTYYADSVKGRFTISRDNAKTTVYLQMNSLKPEDTAVYYCARYRTPGYQAYLYDYWGQGTQVTVSS show?
Reply: low polyreactivity

Query: Please give the result for QVQLVESGGGLVQAGGSLRLSCAASGSTFGYNAMGWYRQAPGKERELVAAISFSSGRTYYADSVKGRFTISRDNAKNTVYLQMNSLKPEDTAVYYCAALQYRRRPYGAVERYDYWGQGTQVTVSS too.
Reply: high polyreactivity

Query: Please give the result for QVQLVESGGGLVQAGGSLRLSCAASGRIFLGNTMGCYRQAPGKERELVAAISKRGGSTYYVDSVKGRFTISRDNAKNTVYLQMNSLKPEDTAVYYCNAGPLYSGVYSGYYWGQGTQVTVSS too.
Reply: high polyreactivity

Query: Please give the result for QVQLVESGGVLVQAGGSLRLSCAASGYIFQTYAMGWYRPAPGKEREFVAAISFIGSSTRYADSVKGRFTISRDNAKNTVYLQMNSLKPEDTAVYYCNNDTITSTWTPYTSWFGYWGQGTQVTVSS too.
Reply: high polyreactivity

Would you kindly look at the next entry?
Query: Bench note: what polyreactivity (PSR sort gate) did QVQLVESGGGLVQAGGSLRLSCAASGRIFHYNAMGSYRQAPVKERELVAAISTGGSTNYADSVKGRFTISRDNAKNTVYLQMNSLKPEDTAVYYCAAGPDPLGEDYWGQGTQVTVSS show?
Reply: low polyreactivity

====

MEASUREMENT DESCRIPTION: yeast display, Sf9 membrane polyspecificity reagent, FACS + sequencing; frameworks hold sequencing errors
ENDPOINT LABEL: polyreactivity (PSR sort gate)

Examples with their reported polyreactivity (PSR sort gate) follow.
Query: Bench note: what polyreactivity (PSR sort gate) did QVQLVESGGGLVQAGGSLRLSCAASGSTFLTNAIGWYRQATGKEREIVADITWSGGSTYYADSVKGRFTISRDNAKNTVYLQMNSLKPEDTAVYYCAVDAYSSVYLWGFVRFDYWGQGTQVTVSS show?
Reply: low polyreactivity

Query: Please give the result for QVQLVESGGGLVQAGGSLRLSCAASGRTFGEYAMGWYRQAPGKERELVADITNGSRTYYADSVKGRFTISRDNAKNTVYLQMNSLKPEDTAVYYCAADWWKEVDYWGQGTQVTVSS too.
Reply: low polyreactivity

Query: Please give the result for QVQLEESGGGLVQAGGSLRLSCAASGSTFPGNGMGCYRPEPGKERELVAYISGGGDSTYYADSVKGRFTISRDNAKNTVYLQMNSLKPEETAVYYCAADYRQEPGYTGYYYWGHGTQVTVSS too.
Reply: low polyreactivity

Query: Please give the result for QVQLVESGVGLVQAGGSLRLSCAASGSIFHIYAMGWYRQAPGKERELVAAMTYADSVKGRFTISRVNAKNTVYLQMNSLKPEDTAVYECNADNWPRIHGSAYDYWGQGTQVTVSS too.
Reply: low polyreactivity

Query: Please give the result for QVQLVESGGGLVQAGGSLRISCAASGSTFDGYAMGWYRQAPGKERELVAAITRGGSTNYADSVKGRFTISRDNAKNTVYLQMNSLKPEDTAVYYCNARLWKRYPYDGYGYWGQGTQVTVSS too.
Reply: high polyreactivity

Query: Please give the result for QVQLVESGGGLVQAGGSLRLSCAASGIIFDSNAMGWYRQAPGKERELVAAITRTATRTYYADSVKGRFTISRDQAQNTVYLQMNSLKPEDTAFYYCADRGSTPQPGVGYWGQGTQVTVSS too.
Reply: high polyreactivity

More entries:
Query: Bench note: what polyreactivity (PSR sort gate) did QVQLVESGGGLVQAGGSLRLSCAASGSIFASYAMGWYRQAPGKERELVAAISQNGSRTYYAVSVKGRFTISRDNAKYTVYLQMNSLKPEDTAVYYCAVLSRQYFRYGYDYWGQGTQVTVSS show?
Reply: high polyreactivity

Query: Please give the result for QVQLVESGGGLVQAGGSLRLSCAATGSIIPFYAMGWYRQATGKEREFVAAISRTGGNTYYADSVKGLLTISRDNAKNTVYLQMNSLKPEDTAVYFCATKRKWTYLSFDYWGQGTQVTVSS too.
Reply: low polyreactivity

Query: Please give the result for QVQLVESGGGIVQAGGSLRLTCAASGYIFYSYAMGWYRHAPGKERELVATISSGGSTYYADSVKGRFTISRDNAKNTVYFQMNSLKPEDTAVYYCATDHDIVYNFNRYDYWGQGTQVTVSS too.
Reply: low polyreactivity

Query: Please give the result for QVQLVESGGGLVQAGGSLRLICAASGSTFTRYAMGWYRQAPGKERELVAAINSSGGRTYYADSVKGRFTISRDNAKNTVYLQMNSLKPEDTAVYYFAATRGRYREDEDYWGQGTQVTVSS too.
Reply: high polyreactivity

Query: Please give the result for QVHLVESGGGLVQAGGSLRLSCAASGFIFTYYTMGWYRQAPGKERELVAAISRSGARTYYADSVKGRFTISRDNAKNTVYLQMNSLKPEDTAVYYCNTDISYGYYPVGYDYWGQGTQVTVSS too.
Reply: high polyreactivity

Query: Please give the result for QVQLVESGGGLVQAGGSLRLSCAASGSIFVFNAMGWYRQAPGKERELVADITRRGGSTYYADSVKGRFTISRDNAKNTVYLQMNSLKPEDTAVYYCAAANPRDHRGANDYWGQGTQVTVSS too.
Reply: high polyreactivity

Data provenance: the nanobody polyreactivity screen of Harvey et al. (2022)
